- ASSAY_TARGET: T1, CD27 expressed on the cell surface (HT1080_CD27 cells) (human, UniProt P26842 20-260); further: test concentration or dose not given here
- T1 sequence (looked up): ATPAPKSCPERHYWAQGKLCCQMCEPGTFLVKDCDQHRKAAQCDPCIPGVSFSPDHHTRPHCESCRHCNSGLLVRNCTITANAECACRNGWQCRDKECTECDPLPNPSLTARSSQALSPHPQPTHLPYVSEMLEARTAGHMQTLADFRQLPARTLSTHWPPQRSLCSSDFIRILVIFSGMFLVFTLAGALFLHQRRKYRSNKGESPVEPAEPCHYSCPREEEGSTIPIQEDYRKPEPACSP
- ASSAY_NAME: cell-based or functional assay
Consider the following binders; for each one, report its IL-8, cross-linked by F(ab')2 fragment [abs. corr.].

*Q* Give IL-8, cross-linked by F(ab')2 fragment [abs. corr.] for the following binder: P018.S.01.A.G04 (antibody, V domains shown, V regions on human Ig constant parts; also called AB27_23) VH: QEQLVESGGGLVQPEGSLTLTCTASGVSFSNNYYISWVRQAPGKGLEWIACVYTGDDDYTYYPSWAKGRFTISKTSSTTVTLQMTSLTAADTATYFCAREILYPADTDSFDLWGPGTLVTVSS VL: AFELTQTPSSVEAAVGGTVTIKCQASESISSRLAWYQQKPGQPPKLLIYRASTLASGVPSRFKGSGSGTDFTLTISDLESADAATYYCQAYVGISSGGYIFGGGTEVVVK
*A* 1.15 abs. corr.

*Q* Please report IL-8, cross-linked by F(ab')2 fragment [abs. corr.] for the following binder: P018.S.10.A.H02 (antibody, V domains shown, V regions on human Ig constant parts; also called AB27_185) VH: QSLEESGGRLVTPGGSLTLTCTVSGIDLSSYAMGWFRQAPGKGLEYIGIIYSSGSTWFANWVKGRFTISKTSTTVDLKMTSLTTEDTATYFCARYSAADHGDKFKLWGQGTLVTVSS VL: AAVLTQTPSPVSAAVGGTVSISCQSSKNIFDNTRLSWFQQKPGQPPKQLIYGASTLASGVPSRFSGSGSGTQFTLTISGVQSDDAATYYCLGEYSSDSDTSFGGGTEVVVK
*A* 2.1 abs. corr.

***
*Q* Give the reported value of IL-8, cross-linked by F(ab')2 fragment [abs. corr.] for this record: P018.S.03.A.B02 (antibody, V domains shown, V regions on human Ig constant parts; also called AB27_42) VH: QSLEESGGRLVTPGTPLTLTCTASGFSLSSYDMNWVRQAPGEGLEWIGTITTNSDTYYASWAKGRFTISKTSTTVDLKITSPTTEDTATYFCARGYTTFTLWGQGTLVTVSS VL: DPVLTQTPSSASEPVGGTVTINCQASQNIYSNLAWYQQKPGQPPKLLIYGASTLESGVPSRFSGSGSGTQFTLTISDLESDDAATYYCQCTDYDSNYVVDFGGGTEVVVK
*A* 1.49 abs. corr.
